Provide the reported cell growth Replicate 4 of each item.
Test system: AGS cells
Assay: Cell growth using bovine cathelicidin variants in AGS cells (SRB assay)
Type: cell-based, human
Parameters: unit not given here
Conditions: 72 hours, -ve control 0.265
When you answer, write just the number.

Input: So what does the record say about cell growth Replicate 4 for LAM 32.8: bovine cathelicidin variant, SEQ ID NO 171 (protein) METPRASLSLGRWSLWLLLLGLALPSAQRPGPQLQGGRASCLMESASMKKSSEANLYRLLELDPPPKEDDENPNIPKPVSFRVKETVCPRTSQQSPEQCDFKENGLLKYCVGTVSRWDQVGSNFDITCAAPQSVGGLQAWVGRYYVLGKSMAQLLFQ ?
Output: 0.361

Input: So what does the record say about cell growth Replicate 4 for LAM 32.9: bovine cathelicidin variant, SEQ ID NO 173 (protein) METPRASLSLGRCSLWLLLLGLVLPSASAQALSYREAVLRAVDQFNERSSEANLYRLLELDPTPNDVSYEGIWAGRPASWGAGRQIRGRRMSPNPVSPTLTHDQDLDPGTRKPVSFRVKETDCPRTSQQPLEQCDFKENGVSLGAGEKNGRCFPGIGQRAWGRLPIPGRRPGGYGHRGFSLTLNLPFQLVKTVCGTARHQHN ?
Output: 0.229

Input: So what does the record say about cell growth Replicate 4 for LAM 32.11: bovine cathelicidin variant, SEQ ID NO 177 (protein) METQRASLSLGRWSLWLLLLGLVLPSASAQALSYREAMLRAVDQLNERSSEAHLYRLLGASTRPPSGHELGRGTGDEPFSCPALATLLPLHSGCTSCQEGTFPSRWVPTSSRKAVSRDLGHLPAPGYPCLSISAVGIGTLHTWLRFPGLLGSSRDGGVTGSVR ?
Output: 0.431

Input: So what does the record say about cell growth Replicate 4 for LAM 32.10: bovine cathelicidin variant, SEQ ID NO 175 (protein) METQRASLSLGRWSLWLLLLGLVLPSASAQALSYREAMLRAVDQLNERSSEAHLYRLLELDPPPDMSWGGDRGRAFLLPALATLLPLHSGCTSCQEGTFPSRWVPTSSRKASQTWVISQHQASCLSISAVGIGTLHTWLKFPGLLGAPGMGGS ?
Output: 0.514
